Origin of values: ChEMBL document CHEMBL3991601

Measurement target: Ribosyldihydronicotinamide dehydrogenase [quinone] (Homo sapiens); note: in the data inactive means no Kd found up to 30 µM
Sequence (P16083 whole entry): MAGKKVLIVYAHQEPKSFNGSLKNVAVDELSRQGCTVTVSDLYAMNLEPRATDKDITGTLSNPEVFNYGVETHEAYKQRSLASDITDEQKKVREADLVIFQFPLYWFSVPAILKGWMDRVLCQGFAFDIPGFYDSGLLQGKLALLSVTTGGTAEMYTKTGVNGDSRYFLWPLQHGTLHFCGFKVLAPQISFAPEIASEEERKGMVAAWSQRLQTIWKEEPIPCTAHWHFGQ
The source made the active and inactive calls.
Outcomes: T (active), F (inactive)

- Smiles: "CCN1CCN(Cc2ccc(Nc3ncc(F)c(-c4cc(F)c5nc(C)n(C(C)C)c5c4)n3)nc2)CC1"
  Measurement target: "Ribosyldihydronicotinamide dehydrogenase [quinone] (Homo sapiens)"
  Class assignment: "F"
- Smiles: "CCN(CCCOc1ccc2c(Nc3cc(CC(=O)Nc4cccc(F)c4)n[nH]3)ncnc2c1)CCOP(=O)(O)O"
  Measurement target: "Ribosyldihydronicotinamide dehydrogenase [quinone] (Homo sapiens)"
  Class assignment: "F"
- Smiles: "Cc1c(Cn2c(C)nc3c(C(=O)O)cc(N4CCOCC4)cc32)cccc1C(F)(F)F"
  Measurement target: "Ribosyldihydronicotinamide dehydrogenase [quinone] (Homo sapiens)"
  Class assignment: "F"
- Smiles: "O=C(Nc1ccc(OC(F)(F)F)cc1)c1sccc1NCc1ccnc2ccccc12"
  Measurement target: "Ribosyldihydronicotinamide dehydrogenase [quinone] (Homo sapiens)"
  Class assignment: "F"
- Smiles: "COc1cc2c(N3CCN(C(=O)Nc4ccc(OC(C)C)cc4)CC3)ncnc2cc1OCCCN1CCCCC1"
  Measurement target: "Ribosyldihydronicotinamide dehydrogenase [quinone] (Homo sapiens)"
  Class assignment: "F"
- Smiles: "C=CC(=O)Nc1cc(Nc2nccc(-c3cn(C)c4ccccc34)n2)c(OC)cc1N(C)CCN(C)C"
  Measurement target: "Ribosyldihydronicotinamide dehydrogenase [quinone] (Homo sapiens)"
  Class assignment: "T"
- Smiles: "CNC(=O)c1cccc(-c2ccc3c(N4CCOC[C@@H]4C)nc(N4CCOC[C@@H]4C)nc3n2)c1"
  Measurement target: "Ribosyldihydronicotinamide dehydrogenase [quinone] (Homo sapiens)"
  Class assignment: "F"
- Smiles: "C[C@@H]1COC(Nc2ccc3ncnc(Nc4ccc(OCc5nccs5)c(Cl)c4)c3c2)=N1"
  Measurement target: "Ribosyldihydronicotinamide dehydrogenase [quinone] (Homo sapiens)"
  Class assignment: "F"
- Smiles: "CC(C)CC(=O)Nc1[nH]nc2c1CN(C(=O)C1CCN(C)CC1)C2(C)C"
  Measurement target: "Ribosyldihydronicotinamide dehydrogenase [quinone] (Homo sapiens)"
  Class assignment: "F"
- Smiles: "C#Cc1cccc(Nc2ncnc3cc4c(cc23)OCCOCCOCCO4)c1"
  Measurement target: "Ribosyldihydronicotinamide dehydrogenase [quinone] (Homo sapiens)"
  Class assignment: "F"
- Smiles: "O=C(NC[C@H](O)CO)c1ccncc1Nc1ccc(I)cc1F"
  Measurement target: "Ribosyldihydronicotinamide dehydrogenase [quinone] (Homo sapiens)"
  Class assignment: "F"
- Smiles: "Cn1cnc2c(F)c(Nc3ccc(Br)cc3Cl)c(C(=O)NOCCO)cc21"
  Measurement target: "Ribosyldihydronicotinamide dehydrogenase [quinone] (Homo sapiens)"
  Class assignment: "F"
- Smiles: "C=CCN(/C=C1/C(=O)O[C@H](COC)[C@@]2(C)C1=C(O)C(=O)C1=C2[C@H](OC(C)=O)C[C@]2(C)C(=O)CC[C@@H]12)CC=C"
  Measurement target: "Ribosyldihydronicotinamide dehydrogenase [quinone] (Homo sapiens)"
  Class assignment: "F"
- Smiles: "FC(F)(F)c1ccc(CNc2ccc(Cc3c[nH]c4ncc(Cl)cc34)cn2)cn1"
  Measurement target: "Ribosyldihydronicotinamide dehydrogenase [quinone] (Homo sapiens)"
  Class assignment: "F"
- Smiles: "C[C@]1(O)C[C@@H](c2nc(-c3ccc4ccc(-c5ccccc5)nc4c3)c3c(N)nccn32)C1"
  Measurement target: "Ribosyldihydronicotinamide dehydrogenase [quinone] (Homo sapiens)"
  Class assignment: "F"
- Smiles: "CNC(=O)c1cc(COc2nnc(Nc3ccc(Cl)cc3)c3ccoc23)ccn1"
  Measurement target: "Ribosyldihydronicotinamide dehydrogenase [quinone] (Homo sapiens)"
  Class assignment: "F"
